# studyTarget: Endothelin-1 receptor (Homo sapiens)
# Sequence (P25101 whole entry): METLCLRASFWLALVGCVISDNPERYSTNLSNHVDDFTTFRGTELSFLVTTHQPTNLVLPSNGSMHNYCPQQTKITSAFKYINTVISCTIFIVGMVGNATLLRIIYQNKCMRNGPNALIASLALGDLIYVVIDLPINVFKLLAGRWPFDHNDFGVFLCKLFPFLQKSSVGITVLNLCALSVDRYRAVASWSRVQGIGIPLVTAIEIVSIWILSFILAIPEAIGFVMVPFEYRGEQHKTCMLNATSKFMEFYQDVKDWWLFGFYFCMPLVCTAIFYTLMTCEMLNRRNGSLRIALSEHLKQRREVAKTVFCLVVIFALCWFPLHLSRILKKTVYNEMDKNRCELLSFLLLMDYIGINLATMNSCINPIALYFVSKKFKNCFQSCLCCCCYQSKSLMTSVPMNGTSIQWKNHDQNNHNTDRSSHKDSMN
# assayDetails: Affinity for human endothelin A receptor expressed in Ltk cells.
I'd be grateful if you could share measured IC50 for these entries.
// return numeric value only (unit: nM, not printed)

Req: Answer with the recorded IC50 for the compound listed here: "O=C(O)c1c(Sc2ccc3c(c2)OCO3)c2cc3c(cc2n1Cc1ccc2c(c1)OCO2)OCO3"
Resp: 100

Req: Give the measured IC50 for "COc1cccc(Sc2c(C(=O)O)n(Cc3ccccc3)c3cc(OC)c(OC)cc23)c1"
Resp: 160

====

# studyTarget: Endothelin receptor type B (Homo sapiens, UniProt P24530)
# Sequence (P24530 whole entry): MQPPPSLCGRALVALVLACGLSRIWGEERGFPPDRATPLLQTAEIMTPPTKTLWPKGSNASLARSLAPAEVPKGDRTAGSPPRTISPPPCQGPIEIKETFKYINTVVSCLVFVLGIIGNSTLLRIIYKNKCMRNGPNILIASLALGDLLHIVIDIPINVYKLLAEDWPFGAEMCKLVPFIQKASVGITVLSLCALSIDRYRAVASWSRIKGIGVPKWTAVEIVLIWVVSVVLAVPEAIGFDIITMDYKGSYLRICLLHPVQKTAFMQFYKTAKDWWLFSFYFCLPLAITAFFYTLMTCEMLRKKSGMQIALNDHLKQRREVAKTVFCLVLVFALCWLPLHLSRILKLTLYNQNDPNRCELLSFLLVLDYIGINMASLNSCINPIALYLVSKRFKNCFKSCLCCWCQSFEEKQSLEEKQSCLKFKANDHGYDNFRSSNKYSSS
# assayDetails: Affinity for human endothelin B receptor expressed in CHO-K1 cells.
pIC50: −log10 of the molar value.
Task for the reader: assign each of the following compounds its reported pIC50.

Req: For the compound "COc1cccc(Sc2c(C(=O)O)sc3ccccc23)c1" , give its measured pIC50 value.
Resp: < 4.60

Req: Given "COc1cc2c(Sc3cc(OC)c(OC)c(OC)c3)c(C(=O)O)n(Cc3ccc4c(c3)OCO4)c2cc1OCc1ccccc1" , respond with its pIC50.
Resp: < 5.60

Req: Specify reported pIC50 for the compound shown: "CC(C)Oc1c(C(=O)O)sc2ccc(OCc3ccccc3)cc12"
Resp: < 4.00

Req: Tell me measured pIC50 for "COc1cccc(Sc2c(C(=O)O)oc3ccccc23)c1" please.
Resp: < 4.60
